Collected T/C values appear next to each entry.
- Tested on: BDF1 mice, P388 leukemia ip, median survival T/C
- protocol notes: NCI In Vivo Anticancer Drug Screen. Data for tumor model P388 Leukemia (intraperitoneal) in B6D2F1 (BDF1) mice
- settings: endpoint: median survival time; dose: 400.0 mg/kg/injection; schedule: Q01DX009 (ip); vehicle: Klucel (hydroxypropylcellulose) (HPC); higher = longer survival
Toxic doses and inconclusive results are not listed.

Here's what some known entries look like.
molecule	T/C
O=C(OCC#CC#CCOC(=O)c1ccccc1)c1ccccc1	104 % of control
O=C(Nc1ccc(Nc2ccncc2)cc1)c1ccc(Nc2ccnc3ccc([N+](=O)[O-])cc23)cc1	95 % of control
CCCCSCC(N)C(=O)O (stereo not given)	111 % of control
Cc1cc(N(C)C)ccc1C=O	109 % of control
O=C1NC(c2ccc3ccccc3n2)Nc2ccccc21 (stereo not given)	110 % of control
O=C(CC(NC(=O)OCc1ccccc1)C(=O)O)OCc1ccccc1 (stereo not given)	94 % of control
CCOC(=O)C(/C=N/C(N)=O)=C(\C)O	87 % of control
CC(=O)NNc1ccc([N+](=O)[O-])cc1	90 % of control

State the recorded T/C for this entry: `CCCC(=O)Nc1ccc(NS(C)(=O)=O)cc1OC`
90 % of control

State the recorded T/C for this entry: `CCCOC(=O)c1ccc([N+](=O)[O-])cc1`
100 % of control

* * *

- Tested on: BDF1 mice, P388 leukemia ip, median survival T/C
- protocol notes: NCI In Vivo Anticancer Drug Screen. Data for tumor model P388 Leukemia (intraperitoneal) in B6D2F1 (BDF1) mice
- settings: endpoint: median survival time; dose: 200.0 mg/kg/injection; schedule: Q01DX009 (ip); vehicle: other; higher = longer survival
- Protocol: The antitumor activity of compounds was measured in mice bearing transplantable tumors. Survival or tumor size were measured and the results are expressed as the measurement made in the treated group (T) divided by the measurement made in the vehicle treated control group (C). The tumor model used in this assay is P388 Leukemia (intraperitoneal) in B6D2F1 (BDF1) mice
Inconclusive results and toxic doses are left out. Non-standard residues stand in square brackets, D forms with d. Residues, ends and D or L forms follow the SMILES beside them. ξ: configuration not given here. *: point of attachment. Nphe = O=C(O)CNCc1ccccc1; ξL = CC(C)CC(N)C(=O)O; Ms = CS(=O)(=O)*
recorded endpoint: T/C

compound	target desc	T/C
CC(C)CC(NC(=O)CN(Cc1ccccc1)S(C)(=O)=O)C(=O)O (stereo unspecified) (Ms-[Nphe]-[ξL]-OH)	BDF1 mice, P388 leukemia ip, median survival T/C	89 % of control
CCCCCCCCCC(O)CCCCCCCCC	BDF1 mice, P388 leukemia ip, median survival T/C	95 % of control
COC(=O)CCCc1c[nH]c2ccccc12	BDF1 mice, P388 leukemia ip, median survival T/C	94 % of control
CCCCNc1ccc([N+](=O)[O-])cc1[N+](=O)[O-]	BDF1 mice, P388 leukemia ip, median survival T/C	105 % of control
COc1cccc(C(=O)O)c1OS(=O)(=O)c1ccc(C)cc1	BDF1 mice, P388 leukemia ip, median survival T/C	101 % of control

Below: the item to evaluate.
State the recorded T/C for this entry: `CC1=C(C(=O)OCc2ccccc2)C(c2ccc(Cl)cc2)C(C(=O)OCc2ccccc2)=C(C)N1`
90 % of control

* * *

- System: BDF1 mice, P388 leukemia ip, median survival T/C
- protocol notes: NCI In Vivo Anticancer Drug Screen. Data for tumor model P388 Leukemia (intraperitoneal) in B6D2F1 (BDF1) mice
- settings: endpoint: median survival time; dose: 12.5 mg/kg/injection; schedule: Q04DX003 (ip); vehicle: saline; higher = longer survival
Toxic doses and inconclusive results are not listed.
Collected T/C values appear next to each entry.

structure smiles	T/C
[NH-]CC(=O)[N-]CC(=O)O.[NH-]CC(=O)[N-]CC(=O)O.[Ni]	104 % of control
CCC(C)(C)c1ccc(OCCOS(=O)(=O)c2ccc(C)cc2)cc1	95 % of control
O=C(CBr)c1cccnc1	104 % of control
CCN(CC)c1ccc(N=Cc2ccccc2S(=O)(=O)O)cc1	109 % of control

State the recorded T/C for this entry: `CC(C)(C)C#C[P+](C#CC(C)(C)C)(Cc1ccccc1)c1ccccc1`
123 % of control

* * *

- System: BDF1 mice, P388 leukemia ip, median survival T/C
- protocol notes: NCI In Vivo Anticancer Drug Screen. Data for tumor model P388 Leukemia (intraperitoneal) in B6D2F1 (BDF1) mice
- settings: endpoint: median survival time; dose: 50.0 mg/kg/injection; schedule: Q01DX009 (ip); vehicle: saline with Tween-80
Toxic doses and inconclusive results are not listed. Rule for the calls: active = survival T/C of 150% or more; inactive = T/C below 125% in these data.
Outcome field: choose from active, inactive

These solved cases illustrate the format of a correct answer.
compound	label class
CCOC(=O)c1cccc2cccc(C(=O)OCC)c12	inactive
O=S(=O)(Nc1ccccn1)c1ccc(N(CCCl)CCCl)cc1	inactive
CCCCOP(=S)(N1CC1)N1CC1	inactive
CCCC(=O)c1cc(O)c(O)cc1O	inactive
COc1ccc(C(=O)/C=N/O)cc1	inactive

Assay result, entry CCCCS(=O)/C=C\C(=O)NCCC (stereo unspecified) — outcome?
inactive

Assay result, entry `Cc1cc(Cc2cc(C)c(C)c(C)c2C)c(C)c(C)c1C` — outcome?
inactive

Assay result, entry CCCCCCC(=O)CC(SCC)c1ccc(Cl)cc1Cl (stereo unspecified) — outcome?
inactive

Assay result, entry `NC(=O)Oc1cc(OC(N)=O)cc(N(CCCl)CCCl)c1` — outcome?
active

Assay result, entry `O=C1OC(c2ccccc2)=C/C1=C/c1ccccc1O` — outcome?
inactive

Assay result, entry `c1ccc(Nc2n[n+](-c3ccccc3)no2)cc1` — outcome?
inactive

Assay result, entry O=C(O)CC(NC(=O)OCc1ccccc1)C(=O)OCc1ccccc1 (stereo unspecified) — outcome?
inactive

Assay result, entry `c1ccc(-c2nnc3ncccn23)cc1` — outcome?
inactive

Assay result, entry `Sc1ccccc1-n1c(-c2ccccc2)ccc1-c1ccccc1` — outcome?
inactive

Assay result, entry `Cc1ncc(CSc2ccccc2N)c(CO)c1O` — outcome?
inactive

Assay result, entry `O=N[O-].O=N[O-].O=N[O-].[Co+3].[NH-]CC[N-]CC[NH-]` — outcome?
inactive

Assay result, entry COC(=O)CCC(C)C1CCC2C3CCC4CC(SC(=N)N)CCC4(C)C3CC(O)C12C (stereo unspecified) — outcome?
inactive

* * *

- System: BDF1 mice, P388 leukemia ip, median survival T/C
- protocol notes: NCI In Vivo Anticancer Drug Screen. Data for tumor model P388 Leukemia (intraperitoneal) in B6D2F1 (BDF1) mice
- settings: endpoint: median survival time; dose: 200.0 mg/kg/injection; schedule: Q04DX003 (ip); vehicle: saline with Tween-80; higher = longer survival
Toxic doses and inconclusive results are not listed.
recorded endpoint: T/C

Here's what some known entries look like.
compound	T/C
CCOC(=O)NC1CCC2c3ccccc3C([N+](=O)[O-])(C1)c1ccccc12 (stereo not drawn)	100 % of control
CCCCc1c2c(nn1C(=O)C=C(C)C)C(=O)C=C(Nc1ccccc1)C2=O	95 % of control

State the recorded T/C for this entry: `O=c1[nH]cnc2n[nH]nc12`
113 % of control

State the recorded T/C for this entry: `CC1(C)COC(c2ccc(C(C)(C)C)cc2C(O)(c2cc(C(C)(C)C)ccc2C2=NC(C)(C)CO2)c2cc(C(C)(C)C)ccc2C2=NC(C)(C)CO2)=N1`
94 % of control

State the recorded T/C for this entry: `CCCN=C(N)c1ccc(NC(=O)c2ccc(C(=O)Nc3ccc(C(N)=NCCC)cc3)cc2)cc1`
118 % of control

State the recorded T/C for this entry: `Cc1c(C)c([N+](=O)[O-])c(Br)c(C)c1[N+](=O)[O-]`
118 % of control

State the recorded T/C for this entry: `CCOC(=O)CCc1nc(C(=O)OCC)c(C)c2nnnn12`
108 % of control

State the recorded T/C for this entry: O=C(c1cccnc1)C1Cc2ccccc2C1=O (stereo not drawn)
100 % of control

* * *

- Test system: BDF1 mice, P388 leukemia ip, median survival T/C
- protocol notes: NCI In Vivo Anticancer Drug Screen. Data for tumor model P388 Leukemia (intraperitoneal) in B6D2F1 (BDF1) mice
- settings: endpoint: median survival time; dose: 100.0 mg/kg/injection; schedule: Q04DX003 (ip); vehicle: saline with Tween-80
Inconclusive results and toxic doses are left out. How the source made its calls: active means survival T/C of 150% or more; inactive means T/C below 125% in these data.
Outcome field: choose from T for active, F for inactive

These solved cases illustrate the format of a correct answer.
compound	label class
O=[N+]([O-])c1ccc2c(c1)c(-c1cc(Cl)cc(Cl)c1)nc1ccccc12	F
O=C(CCCc1ccc(N(CCCl)CCCl)cc1)Nc1ccccc1	T
c1ccc(Nc2n[n+](-c3ccccc3)no2)cc1	F
CC(=O)[C@@]12OC(C)(C)O[C@@H]1C[C@H]1[C@@H]3C[C@H](C)C4=CC(=O)CC[C@]4(C)[C@H]3CC[C@@]12C	F
Cc1nc2c(NC(=O)C(F)(F)F)nn(C)c2nc1C	F
CCN(C(=O)C(F)(F)F)C1(c2ccc(Cl)cc2)CCCCC1SSSC1CCCCC1(c1ccc(Cl)cc1)N(CC)C(=O)C(F)(F)F (stereo not drawn)	F
O=C1OC(c2ccccc2)=C/C1=C/c1ccc([N+](=O)[O-])cc1	F
COc1ccc2nc3cc(Cl)ccc3c(Cl)c2c1	F
CN(N=O)C(=O)Nc1ccc(C(=O)O)cc1	T
Clc1ccc(OCc2sc3ccc(Cl)cc3c2CN2CCCCC2)cc1	F

Assay result, entry `Cc1ccc(CNc2cc(C)ccn2)cc1` — outcome?
F

Assay result, entry `COc1cc(/C=C2\C(=O)NC(=O)N(c3ccccc3)C2=O)cc(OC)c1OC` — outcome?
F

Assay result, entry `CCc1ccc(NC(=O)c2cccc(Cl)c2)cc1` — outcome?
F
